Molecular target: CDK4/D3 (Homo sapiens (Human), UniProt P11802)
Sequence (P11802 whole entry): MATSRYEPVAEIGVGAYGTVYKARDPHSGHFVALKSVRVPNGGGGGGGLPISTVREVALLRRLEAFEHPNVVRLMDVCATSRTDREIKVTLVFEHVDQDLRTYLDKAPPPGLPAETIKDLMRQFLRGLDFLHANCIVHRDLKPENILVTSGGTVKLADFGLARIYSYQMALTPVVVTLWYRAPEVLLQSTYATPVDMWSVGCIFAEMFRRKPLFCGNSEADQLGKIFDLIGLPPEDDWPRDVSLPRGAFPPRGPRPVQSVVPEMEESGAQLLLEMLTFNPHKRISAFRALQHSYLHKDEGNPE
Sequence (P30281 whole entry partner): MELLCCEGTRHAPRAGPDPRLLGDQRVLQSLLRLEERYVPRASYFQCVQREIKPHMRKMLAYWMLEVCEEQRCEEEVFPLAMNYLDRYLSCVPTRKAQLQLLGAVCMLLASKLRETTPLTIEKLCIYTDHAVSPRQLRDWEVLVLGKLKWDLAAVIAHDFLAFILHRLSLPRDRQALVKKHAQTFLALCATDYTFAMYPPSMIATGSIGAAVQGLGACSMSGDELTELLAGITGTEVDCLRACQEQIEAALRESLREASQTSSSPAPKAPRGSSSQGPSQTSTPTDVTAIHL
Experiment: CDKs inhibition assay (ADP-Glo Kinase Assay), CDK4
Assign labels as follows, please: 1 for IC50 below 0.004 µM; -1 for IC50 equal to or exceeding 0.004 µM.

Field: example entries. Status: answers known.
{"compound": "CCN1CCC(c2ccc(Nc3ncc(F)c(-c4cc(F)c5nc6n(c5c4)C(C)CC6)n3)nc2)CC1 (centres unmarked)", "class": -1}
{"compound": "CN(C)C1CCN(c2ccc(Nc3ncc(F)c(-c4cc(F)c5nc6n(c5c4)C(C)(C)CC6)n3)nc2)CC1", "class": 1}
{"compound": "Fc1cnc(Nc2ccc(N3CCNCC3)cn2)nc1-c1cc(F)c2nc3n(c2c1)CCCC3", "class": -1}
{"compound": "CCC1CCc2nc3c(F)cc(-c4nc(Nc5ccc(C6CCN(C)CC6)cn5)ncc4F)cc3n21 (centres unmarked)", "class": -1}
{"compound": "CN1CCN(c2ccc(Nc3ncc(F)c(-c4cc(F)c5nc6n(c5c4)C(C)(C)CC6)n3)nc2)CC1", "class": -1}
{"compound": "Cc1nc(Nc2ncc(F)c(-c3cc(F)c4nc5n(c4c3)C(C)(C)CC5)n2)ccc1CC1CCNCC1", "class": 1}

Now look at this one.
Dear reviewer, please state whether O=C(CO)N1CCc2nc(Nc3ncc(F)c(-c4cc(F)c5nc6n(c5c4)CCCC6)n3)ccc2C1 has IC50 strictly beneath 0.004 µM. -1
